Biological target: Potassium voltage-gated channel subfamily KQT member 2 (Rattus norvegicus) (UniProt O88943)
Sequence (O88943 whole entry, looked up): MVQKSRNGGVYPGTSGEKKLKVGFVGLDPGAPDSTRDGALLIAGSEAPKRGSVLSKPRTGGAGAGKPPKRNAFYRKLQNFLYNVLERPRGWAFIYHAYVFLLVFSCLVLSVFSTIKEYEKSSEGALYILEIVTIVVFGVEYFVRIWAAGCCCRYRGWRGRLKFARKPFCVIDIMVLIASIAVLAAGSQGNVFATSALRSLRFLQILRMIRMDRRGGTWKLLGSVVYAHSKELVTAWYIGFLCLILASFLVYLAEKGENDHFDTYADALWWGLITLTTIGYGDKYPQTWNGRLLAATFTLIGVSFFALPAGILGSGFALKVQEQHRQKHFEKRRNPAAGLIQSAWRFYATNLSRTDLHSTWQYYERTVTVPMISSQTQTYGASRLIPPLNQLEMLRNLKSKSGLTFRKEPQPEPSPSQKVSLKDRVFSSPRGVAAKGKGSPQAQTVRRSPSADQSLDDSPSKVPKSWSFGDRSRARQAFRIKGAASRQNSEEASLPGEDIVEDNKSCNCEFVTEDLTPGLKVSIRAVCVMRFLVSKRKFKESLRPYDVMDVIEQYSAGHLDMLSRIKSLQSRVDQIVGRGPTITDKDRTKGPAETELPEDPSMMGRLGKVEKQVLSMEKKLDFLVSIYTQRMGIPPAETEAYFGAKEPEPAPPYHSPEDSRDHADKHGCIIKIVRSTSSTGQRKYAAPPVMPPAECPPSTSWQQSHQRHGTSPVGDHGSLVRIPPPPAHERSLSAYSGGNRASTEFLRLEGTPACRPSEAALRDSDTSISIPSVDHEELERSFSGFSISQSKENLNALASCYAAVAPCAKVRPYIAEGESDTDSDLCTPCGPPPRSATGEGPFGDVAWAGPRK
Assay: rat KCNQ2 channel potentiation, selectivity assay for KCNQ1 potentiator project, KCNQ2-CHO-K1 cells (AID 493009);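 also: assay conditions were tuned for KCNQ1 rather than KCNQ2 modulators; signal is max minus min fluorescence divided by baseline after thallium stimulus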
Conditions: FluxOR thallium flux fluorescence, at 10 µM, scaled: buffer 0, activator control 100
Calls of active or inactive are those of the source.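 The calls were made as follows: active = mean duplicate potentiation above the buffer control mean plus 5 SD of buffer wells; inactive = the rest.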
Classes used: active, inactive

| COMPOUND | CLASS |
| --- | --- |
| CCC(CC)C(=O)Nc1cc([N+](=O)[O-])ccc1Cl | inactive |
| COc1ccccc1C(=O)NNC(=O)C(=O)NC1CCCCC1 | active |
| O=C(c1ccccc1)N1CCCC(c2ccc(Cl)cc2)=N1 | inactive |
| COc1ccc(CCN(C)C(=O)CSc2nnc(-c3ccco3)o2)cc1OC | inactive |
| CCCC(=O)n1nc(-c2ccccc2)nc1N | inactive |
| Cc1c(C(=O)NC(=S)NCc2cccnc2)oc2ccccc12 | inactive |
| CNCC/C=C1/c2ccccc2CSc2ccccc21 | inactive |
| O=C1OCCC1Sc1nc2ccccc2c(=O)n1Cc1ccc(F)cc1 (stereo not drawn) | active |
| Cc1ccc(-c2noc(CNS(=O)(=O)c3ccccc3)n2)cc1 | inactive |
| COc1ccc(C)c2sc(NC(=O)C3=COCCO3)nc12 | inactive |
| CCCCn1c(NS(=O)(=O)c2ccc(C)cc2)c(S(=O)(=O)c2ccccc2)c2nc3ccccc3nc21 | inactive |
| COc1ccc(/C=N\NC(=S)SCN2C(=O)C3CCC(C)(C2=O)C3(C)C)cc1 (stereo not drawn) | inactive |
| O=C(Nc1ccc(Cl)cn1)c1cccc(S(=O)(=O)N2CCOCC2)c1 | inactive |
| Nc1ccccc1OCCOCCOc1ccccc1N | inactive |
| CC(C)(C)C(=O)NC1CC2CCCC(C1)N2C(=O)Nc1ccccc1 (stereo not drawn) | inactive |
| CCCCn1c(-c2csc3c2CCC(C)C3)n[nH]c1=S (stereo not drawn) | active |
| O=C(NCc1ccco1)c1ccc(=O)oc1 | inactive |
| COc1ccc(-c2nnc(NC(=O)c3ccc(S(=O)(=O)N4CCCc5ccccc54)cc3)o2)cc1 | inactive |
| OCCCCNCc1ccc(OCc2ccc(Cl)cc2Cl)cc1 | inactive |
| COC(=O)c1c(NC(=O)CC2SC(N)=NC2=O)sc2c1CCC(C)C2 (stereo not drawn) | inactive |
| NC(=O)c1ccccc1NC(=O)N1CCOCC1 | inactive |
| O=C(COc1ccc(C(=S)N2CCC(Cc3ccccc3)CC2)cc1)N1CCOCC1 | inactive |
| O=C(Nc1nnc(-c2ccc3c(c2)CCCC3)o1)c1ccccc1Cl | active |

====

Assay: thallium flux effects in parental CHO cells, counter-screen for KCNQ1 inhibitor project, cell-based, Tl flux (AID 588366);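 also: ratio is peak minus minimum fluorescence divided by baseline fluorescence; actives read low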
Conditions: parental CHO-K1, FluxOR thallium flux fluorescence ratio; at 10 µM; hits give low values; zero means no signal rise above baseline
The other results are listed elsewhere or left out.
Decide using fluorescence ratio (Tl flux) alone. Strictly below 0.4: Y. Equal to or above 0.4: N.

| MOLECULE | CLASS |
| --- | --- |
| CC(=O)N1CCCc2cc(S(=O)(=O)N3CCCC(C(=O)N4CCN(c5cccc(Cl)c5)CC4)C3)ccc21 (stereo not drawn) | N |
| Cc1ccccc1C(=O)OC1OC(=O)C(Cl)=C1Nc1ccccc1 (stereo not drawn) | N |
| Cc1cc(C)cc(N(CC(=O)N2CC=C(c3ccccc3)CC2)S(=O)(=O)c2c(C)noc2C)c1 | Y |
| CN(c1cccc(NC(=O)Nc2ccc(Cl)cc2)c1)S(C)(=O)=O | N |
| Fc1ccc2[nH]c3c(N4CCSCC4)ncnc3c2c1 | Y |
| COc1ccc(Cl)cc1NC(=O)C(C)N1CCc2ccccc21 (stereo not drawn) | N |
| CC1CCC2(CC1)NC(=O)N(CC(=O)c1cccn1C)C2=O (stereo not drawn) | N |
| Cc1cccc(NC(=S)Nc2ccc(Cl)c(Cl)c2)c1 | N |
| O=C(CCN1c2ccccc2Sc2ccccc21)Nc1ccccc1 | Y |
| S=C(Nc1cccc(Cl)c1)Nc1ccc2c(c1)OCCO2 | N |
| CNC(=O)c1ccsc1NC(=O)c1ccc(S(=O)(=O)N2CCc3ccccc32)cc1 | N |
| O=C(Nc1ccc(Cl)cc1)Nc1ccc(Oc2cccnc2)nc1 | N |
| Cc1nc2ccccc2cc1OCc1ccc(F)cc1 | N |
| Cc1cc(C)cc(NC(=O)NC2CCCCCCC2)c1 | N |
| COc1cccc(-c2cnc(OC(C)(C)C)nc2OC(C)(C)C)c1 | N |
| Cc1cc(Br)ccc1NC(=O)c1cnc(N2CCN(c3ccccn3)CC2)c2ccccc12 | N |
| CCOC(=O)c1c(NC(=O)C(C)Sc2c[nH]c3ccccc23)sc2c1CCC2 (stereo not drawn) | N |
| Cc1ccccc1OCC(=O)Nc1ccc(N2CCN(C(=O)C(C)C)CC2)c(Cl)c1 | N |
| Oc1ccc2ccc3cccc[n+]3c2c1 | Y |
| Cc1nc(N2CCN(c3ccccn3)CC2)c2c(C)c(C(=O)Nc3ccc(F)c(Cl)c3)sc2n1 | Y |
| CCn1c(C)c(C)c2cc(C(=O)N3CCN(c4cccc(C)c4C)CC3)ccc21 | N |
| O=C1CCc2cc(S(=O)(=O)N3CCC(C(=O)NCc4ccccc4Cl)CC3)ccc2N1 | N |
| O=C(NCCc1ccccc1)c1ccc2c(c1)N(Cc1ccccc1)CCS2 | N |
| CCC(=C/c1sc2ccc3ccccc3c2[n+]1C)/C=C1\Sc2ccc3ccccc3c2N1C | N |
| CCOC(=O)c1ccc(NC(=O)Cn2cnc3cc(C)c(C)cc32)cc1 | N |
| COc1ccc(S(=O)(=O)/N=C2\C=C(NS(=O)(=O)c3ccccc3)C(=O)c3ccccc32)cc1 | N |
| S=C(NCCCc1ccccc1)Nc1ccc(Br)cc1 | N |

====

System: TRPC4 (transient receptor potential cation channel C4), mouse
Experiment: TRPC4 inhibition by TRPC6 hit compounds, confirmation, selectivity assay for TRPC6 modulator project, cell-based, second screen, HEK293 TRPC4/mu-opioid, membrane potential dye (AID 488928);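 also: TRPC4 counter screen for TRPC6 hits run under conditions tuned for TRPC6 not TRPC4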
Conditions: membrane potential dye fluorescence, at 10 µM, stimulated with maximal-effect DAMGO; hits give high values
The other results are listed elsewhere or left out. Calls of active or inactive are those of the source.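 How the source made its calls: active means drop in membrane potential signal beyond 5 SD of the control wells in both duplicate plates; inactive means the rest.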

| COMPOUND | inhibition |
| --- | --- |
| COc1ccc(C(=O)C2CCCN(Cc3cccn3-c3ccccn3)C2)c(C)c1 (stereo unspecified) | 99% (active) |
| COC(=O)c1ccc(NC(=O)CSc2nnc(-c3ccncc3)n2C)cc1 | inactive |
| COc1ccc(Br)cc1/C=N/n1c(C)nnc1C | inactive |
| CSCCC(NC(=O)c1ccc(=O)n(C)n1)c1nc2ccccc2[nH]1 (stereo unspecified) | inactive |
| COc1ccc(-c2nnc(NC(=O)CS(=O)(=O)c3ccc(Cl)cc3)o2)c(OC)c1 | inactive |
| CCCCN(C)CCCNC(=O)c1cc(-c2cccs2)nc2ccccc12 | 65.5% (active) |
| COc1ccc(Cl)cc1NC(=O)CCS(=O)(=O)c1cc2c(cc1C)NC(=O)CO2 | inactive |
| Cc1ccccc1NC(=O)CNc1ccccc1N1CCCCC1 | 52.5% (active) |
| CC(NC(=S)Nc1ccc(OC(F)F)cc1)c1ccc(F)cc1 (stereo unspecified) | inactive |
| Cc1c(CCOC(=O)CC23CC4CC(CC(C)(C4)C2)C3)sc[n+]1Cc1ccc([N+](=O)[O-])cc1 | inactive |
| O=C(CN1CCCCCC1)N1c2ccccc2Sc2ccc(C(F)(F)F)cc21 | inactive |

====

Biological target: Potassium voltage-gated channel subfamily KQT member 2 (Rattus norvegicus)
Assay: KCNQ2 channel inhibition, selectivity assay for KCNQ1 inhibitor project, cell-based (AID 651746);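 as to inhibition: 0% = buffer control wells and 100% = XE-991 inhibitor control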
Conditions: KCNQ2 cells, FluxOR thallium flux fluorescence, at 10 µM
The other results are listed elsewhere or left out. Calls of active or inactive are those of the source.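 Rule for the calls: active = mean percent inhibition of the KCNQ2 thallium signal more than 5 SD above the buffer-only control wells; inactive = the rest.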
Classes used: active, inactive

| COMPOUND | CLASS |
| --- | --- |
| Cc1nc(Nc2ccc3c(c2)OCCO3)c2nnn(Cc3ccccc3Cl)c2n1 | active |
| CCOc1ccc(CN2CCN(Cc3c[nH]c4ccccc34)CC2)cc1 | inactive |
| Cc1cc2nc3c(=O)n(Cc4ccccc4)c(=O)[nH]c3nc2cc1N | inactive |
| Cc1nc(N2CCN(c3ccccn3)CC2)c2c(C)c(C(=O)Nc3ccc(F)cc3)sc2n1 | active |
| COc1ccc(C(=O)NC2CCCc3c2cnn3-c2cccc(C)c2C)c(OC)n1 (stereo not given) | active |
| C=CCSc1nsc(NC(=O)Nc2cccc(C(C)=O)c2)n1 | active |
| O=C(NCC(F)(F)F)Nc1nnc(C(F)(F)F)s1 | inactive |
| S=C(NCCCc1ccccc1)Nc1ccc(Br)cc1 | inactive |
| O=C(Nc1ccc2ccccc2c1)Nc1ccc2snnc2c1 | inactive |
| CCCc1cc(=S)n2c([nH]c3ccccc32)c1C#N | active |
| O=C(NCCc1ccccc1)c1ccc2c(c1)N(Cc1ccccc1)CCS2 | active |
| CCOC(=O)c1ccc(NC(=O)Cn2cnc3cc(C)c(C)cc32)cc1 | inactive |
| C=CCOC(=O)C1=C(C)NC(SCC(=O)OCC)=C(C#N)C1c1ccc(C)cc1 (stereo not given) | active |
| O=C(CCN1c2ccccc2Sc2ccccc21)Nc1ccccc1 | active |
| COc1cc(NC(=O)c2ccccc2NS(=O)(=O)c2ccc(Cl)s2)cc(OC)c1 | inactive |
| Cn1nc(-c2ccc(Cl)cc2)c2cc(C(=O)NCc3ccco3)sc21 | active |
| S=C(Nc1cccc(Cl)c1)Nc1ccc2c(c1)OCCO2 | inactive |
| Cc1c(C(=O)OC(C)C)sc(NC(=O)c2cccnc2)c1C#N | active |
| Cc1ccc(-c2noc(CC(c3ccccc3)c3ccccc3)n2)cc1 | active |
| CCN(CC)CC(=O)Nc1sc2c(c1C(=O)c1ccccc1C)CCC2 | active |
| Fc1ccc2[nH]c3c(N4CCSCC4)ncnc3c2c1 | inactive |
| CCCN1Cc2cccc(C(=O)NCc3ccccc3)c2C1=O | inactive |
| CCC(=C/c1sc2ccc3ccccc3c2[n+]1C)/C=C1\Sc2ccc3ccccc3c2N1C | active |
| Oc1ccc2ccc3cccc[n+]3c2c1 | inactive |
| COc1ccc(Cl)cc1NC(=O)C(C)N1CCc2ccccc21 (stereo not given) | active |
| Cc1oc2c(F)c(F)c(F)c(F)c2c1S(=O)(=O)Nc1cccc(C(F)(F)F)c1 | inactive |
| Clc1cccc(-c2nc(NCC3CCCO3)c3ccccc3n2)c1 (stereo not given) | active |
| COc1ccc(Nc2ncnc3sc(-c4ccccc4)cc23)c(OC)c1 | active |
| Cc1nn(C)cc1N1C(=O)c2cccc3c(N)ccc(c23)C1=O | inactive |
| COc1ccc(C(=O)C2CCCN(Cc3cccn3-c3ccccn3)C2)c(C)c1 (stereo not given) | active |
